- Tested on: NCI-H841 (Small Cell Lung Carcinoma);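 also: after 72 h of two-drug dosing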
- Experiment Description: Bliss excess, mean over the matrix (fraction); higher = more synergy
Property: Bliss excess; scope: individual compounds
No unit in the answer, please; the number alone is enough.

1. COc1nnc2ccc(N3CCC(c4ccc(OCCN5CCN(C)C(=O)[C@H]5C)cc4)CC3)nn12 [AZD5153] + C[C@@H]1COCCN1C2=NC(=NC(=C2)C3(CC3)[S@](=N)(=O)C)C4=C5C=CNC5=NC=C4 [AZD6738] (first compound max 1 µM, 7x7, partner max 10 µM)	0.0202

Reported Bliss excess, compound C[C@@H]1COCCN1c1cc(C2([S@](C)(=N)=O)CC2)nc(-c2ccnc3[nH]ccc23)n1 [AZD6738] + Nc1ccn([C@@H]2O[C@H](CO)[C@@H](O)C2(F)F)c(=O)n1 [Gemcitabine] (first compound max 10 µM, 7x7, partner max 0.3 µM) : ____
0.0975

----------
- Test system: HCC70 (Breast Carcinoma)
- Experiment Description: combination Emax (second highest fraction inhibited in the dose matrix, 72 h); higher = more inhibition; extreme values may be limits of the assay
Property: combination Emax; scope: individual compounds

1) CN(CCO)CC[C@H](CSc1ccccc1)Nc1ccc(S(=O)(=O)NC(=O)c2ccc(N3CCC([C@@H](O)c4ccccc4-c4ccc(Cl)cc4)CC3)cc2)cc1S(=O)(=O)C(F)(F)F [AZD4320] + Cn1cnc2c(F)c(Nc3ccc(Br)cc3Cl)c(C(=O)NOCCO)cc21 [Selumetinib] (first compound max 1 µM, 7x7, partner max 3 µM)	0.7

Now for another entry.
Param readout = combination Emax; param system = HCC70 (Breast Carcinoma); param query = CCN(CCO)CCCOc1ccc2c(Nc3cc(CC(=O)Nc4cccc(F)c4)[nH]n3)ncnc2c1 [AZD2811] + C[C@@H]1COCCN1C2=NC(=NC(=C2)C3(CC3)[S@](=N)(=O)C)C4=C5C=CNC5=NC=C4 [AZD6738] (first compound max 1 µM, 7x7, partner max 10 µM) ; response: value
0.797

----------
- System: MHH-ES-1 (Ewing's Sarcoma)
- Experiment Description: combination Emax (second highest fraction inhibited in the dose matrix, 72 h); higher = more inhibition; extreme values may be limits of the assay
Quantity: combination Emax
No unit in the answer, please; the number alone is enough.

1) CN(CCO)CC[C@H](CSc1ccccc1)Nc1ccc(S(=O)(=O)NC(=O)c2ccc(N3CCC([C@@H](O)c4ccccc4-c4ccc(Cl)cc4)CC3)cc2)cc1S(=O)(=O)C(F)(F)F [AZD4320] + Nc1ccn([C@@H]2O[C@H](CO)[C@@H](O)C2(F)F)c(=O)n1 [Gemcitabine] (first compound max 1 µM, 7x7, partner max 0.3 µM)	0.964

Param readout = combination Emax; param system = MHH-ES-1 (Ewing's Sarcoma); param query = CC(=O)c1c(C)c2cnc(Nc3ccc(N4CCNCC4)cn3)nc2n(C2CCCC2)c1=O [Palbociclib] + CC1(C)CCC(CN2CCN(c3ccc(C(=O)NS(=O)(=O)c4ccc(NCC5CCOCC5)c([N+](=O)[O-])c4)c(Oc4cnc5[nH]ccc5c4)c3)CC2)=C(c2ccc(Cl)cc2)C1 [Venetoclax] (first compound max 10 µM, 7x7, partner max 1 µM) ; response: value
0.401

Param readout = combination Emax; param system = MHH-ES-1 (Ewing's Sarcoma); param query = CN(CCO)CC[C@H](CSc1ccccc1)Nc1ccc(S(=O)(=O)NC(=O)c2ccc(N3CCC([C@@H](O)c4ccccc4-c4ccc(Cl)cc4)CC3)cc2)cc1S(=O)(=O)C(F)(F)F [AZD4320] + C[C@@H](Nc1cc(F)cc(F)c1)c1cc(C(=O)N(C)C)cc2c(=O)cc(N3CCOCC3)oc12 [AZD8186] (first compound max 1 µM, 7x7, partner max 3 µM) ; response: value
0.946

----------
Property: combination Emax; scope: individual compounds
- Test system: A101D (Melanoma)
- Experiment Description: combination Emax (second highest fraction inhibited in the dose matrix, 72 h); higher = more inhibition; extreme values may be limits of the assay
No unit in the answer, please; the number alone is enough.

1) CC1(C)CCC(CN2CCN(c3ccc(C(=O)NS(=O)(=O)c4ccc(NCC5CCOCC5)c([N+](=O)[O-])c4)c(Oc4cnc5[nH]ccc5c4)c3)CC2)=C(c2ccc(Cl)cc2)C1 [Venetoclax] + Cc1cc2ncnn2cc1Nc1ncc2c(n1)n(C1CCOCC1)c(=O)n2C [AZD7648] (first compound max 1 µM, 7x7, partner max 10 µM)	0.451
2) CC1(C)CCC(CN2CCN(c3ccc(C(=O)NS(=O)(=O)c4ccc(NCC5CCOCC5)c([N+](=O)[O-])c4)c(Oc4cnc5[nH]ccc5c4)c3)CC2)=C(c2ccc(Cl)cc2)C1 [Venetoclax] + Cn1cnc2c(F)c(Nc3ccc(Br)cc3Cl)c(C(=O)NOCCO)cc21 [Selumetinib] (first compound max 1 µM, 7x7, partner max 3 µM)	0.568
3) COc1cccc(OCCCN)c1-c1cc(Nc2cnc(C#N)cn2)n[nH]1 [Prexasertib] + CCc1c2c(nc3ccc(O)cc13)-c1cc3c(c(=O)n1C2)COC(=O)[C@]3(O)CC [SN-38] (first compound max 1 µM, 7x7, partner max 0.3 µM)	0.899
4) Cc1nc(Nc2ncc(C(=O)Nc3c(C)cccc3Cl)s2)cc(N2CCN(CCO)CC2)n1 [Dasatinib] + CC(=O)Nc1cccc(-n2c(=O)n(C3CC3)c(=O)c3c(Nc4ccc(I)cc4F)n(C)c(=O)c(C)c32)c1 [Trametinib] (first compound max 2 µM, 7x7, partner max 1 µM)	0.688

Param readout = combination Emax; param system = A101D (Melanoma); param query = Cn1cnc2c(F)c(Nc3ccc(Br)cc3Cl)c(C(=O)NOCCO)cc21 [Selumetinib] + C[C@@H]1COCCN1C2=NC(=NC(=C2)C3(CC3)[S@](=N)(=O)C)C4=C5C=CNC5=NC=C4 [AZD6738] (first compound max 10 µM, 7x7, partner max 10 µM) ; response: value
0.76

Param readout = combination Emax; param system = A101D (Melanoma); param query = CN(C)CCCOc1ccc(-c2ccc3ncc4c(c3c2)n(C2CCOCC2)c(=O)n4C)cn1 [AZD0156] + C[C@@H]1COCCN1C2=NC(=NC(=C2)C3(CC3)[S@](=N)(=O)C)C4=C5C=CNC5=NC=C4 [AZD6738] (first compound max 1 µM, 7x7, partner max 10 µM) ; response: value
0.703

Param readout = combination Emax; param system = A101D (Melanoma); param query = COc1nnc2ccc(N3CCC(c4ccc(OCCN5CCN(C)C(=O)[C@H]5C)cc4)CC3)nn12 [AZD5153] + Cc1c2c(nn1C)CSCc1cc(n(C)n1)CSc1cc(c3ccccc3c1)OCCCc1c(C(=O)O)n(C)c3c-2c(Cl)ccc13 [AZD5991] (first compound max 1 µM, 7x7, partner max 1 µM) ; response: value
0.924

----------
Property: combination Emax; scope: individual compounds
- Test system: KYSE-140 (Esophageal Squamous Cell Carcinoma)
- Experiment Description: combination Emax (second highest fraction inhibited in the dose matrix, 72 h); higher = more inhibition; extreme values may be limits of the assay
No unit in the answer, please; the number alone is enough.

// solved cases for combination Emax follow
1) Cc1c2c(nn1C)CSCc1cc(n(C)n1)CSc1cc(c3ccccc3c1)OCCCc1c(C(=O)O)n(C)c3c-2c(Cl)ccc13 [AZD5991] + C=CCn1c(=O)c2cnc(Nc3ccc(N4CCN(C)CC4)cc3)nc2n1-c1cccc(C(C)(C)O)n1 [AZD1775] (first compound max 1 µM, partner max 1 µM)	0.905
2) Cc1cc2ncnn2cc1Nc1ncc2c(n1)n(C1CCOCC1)c(=O)n2C [AZD7648] + CCN(CCO)CCCOc1ccc2c(Nc3cc(CC(=O)Nc4cccc(F)c4)[nH]n3)ncnc2c1 [AZD2811] (first compound max 10 µM, 7x7, partner max 1 µM)	0.353
3) Cc1c2c(nn1C)CSCc1cc(n(C)n1)CSc1cc(c3ccccc3c1)OCCCc1c(C(=O)O)n(C)c3c-2c(Cl)ccc13 [AZD5991] + CC1(C)CCC(CN2CCN(c3ccc(C(=O)NS(=O)(=O)c4ccc(NCC5CCOCC5)c([N+](=O)[O-])c4)c(Oc4cnc5[nH]ccc5c4)c3)CC2)=C(c2ccc(Cl)cc2)C1 [Venetoclax] (first compound max 1 µM, 7x7, partner max 1 µM)	0.485
4) CC(=O)c1c(C)c2cnc(Nc3ccc(N4CCNCC4)cn3)nc2n(C2CCCC2)c1=O [Palbociclib] + CN(CC[C@H](CSC1=CC=CC=C1)NC2=C(C=C(C=C2)S(=O)(=O)NC(=O)C3=CC=C(C=C3)N4CCC(CC4)[C@H](C5=CC=CC=C5C6=CC=C(C=C6)Cl)O)S(=O)(=O)C(F)(F)F)CCO [AZD4320] (first compound max 10 µM, 7x7, partner max 1 µM)	0.303
5) CN(CCO)CC[C@H](CSc1ccccc1)Nc1ccc(S(=O)(=O)NC(=O)c2ccc(N3CCC([C@@H](O)c4ccccc4-c4ccc(Cl)cc4)CC3)cc2)cc1S(=O)(=O)C(F)(F)F [AZD4320] + Cn1cnc2c(F)c(Nc3ccc(Br)cc3Cl)c(C(=O)NOCCO)cc21 [Selumetinib] (first compound max 1 µM, 7x7, partner max 3 µM)	0.289

Reported combination Emax, compound NC1(C(=O)N[C@@H](CCO)c2ccc(Cl)cc2)CCN(c2ncnc3[nH]ccc23)CC1 [Capivasertib] + CC(C)n1c(=O)n(C)c2cnc3cc(F)c(-c4ccc(OCCCN5CCCCC5)nc4)cc3c21 [AZD1390] (first compound max 10 µM, 7x7, partner max 0.3 µM) : ____
0.732

Reported combination Emax, compound Cc1cc2ncnn2cc1Nc1ncc2c(n1)n(C1CCOCC1)c(=O)n2C [AZD7648] + C[C@@H]1COCCN1C2=NC(=NC(=C2)C3(CC3)[S@](=N)(=O)C)C4=C5C=CNC5=NC=C4 [AZD6738] (first compound max 10 µM, 7x7, partner max 10 µM) : ____
0.927
